# System: NLRP3 inflammasome (Homo sapiens, UniProt Q96P20)
# Sequence (Q96P20 whole entry): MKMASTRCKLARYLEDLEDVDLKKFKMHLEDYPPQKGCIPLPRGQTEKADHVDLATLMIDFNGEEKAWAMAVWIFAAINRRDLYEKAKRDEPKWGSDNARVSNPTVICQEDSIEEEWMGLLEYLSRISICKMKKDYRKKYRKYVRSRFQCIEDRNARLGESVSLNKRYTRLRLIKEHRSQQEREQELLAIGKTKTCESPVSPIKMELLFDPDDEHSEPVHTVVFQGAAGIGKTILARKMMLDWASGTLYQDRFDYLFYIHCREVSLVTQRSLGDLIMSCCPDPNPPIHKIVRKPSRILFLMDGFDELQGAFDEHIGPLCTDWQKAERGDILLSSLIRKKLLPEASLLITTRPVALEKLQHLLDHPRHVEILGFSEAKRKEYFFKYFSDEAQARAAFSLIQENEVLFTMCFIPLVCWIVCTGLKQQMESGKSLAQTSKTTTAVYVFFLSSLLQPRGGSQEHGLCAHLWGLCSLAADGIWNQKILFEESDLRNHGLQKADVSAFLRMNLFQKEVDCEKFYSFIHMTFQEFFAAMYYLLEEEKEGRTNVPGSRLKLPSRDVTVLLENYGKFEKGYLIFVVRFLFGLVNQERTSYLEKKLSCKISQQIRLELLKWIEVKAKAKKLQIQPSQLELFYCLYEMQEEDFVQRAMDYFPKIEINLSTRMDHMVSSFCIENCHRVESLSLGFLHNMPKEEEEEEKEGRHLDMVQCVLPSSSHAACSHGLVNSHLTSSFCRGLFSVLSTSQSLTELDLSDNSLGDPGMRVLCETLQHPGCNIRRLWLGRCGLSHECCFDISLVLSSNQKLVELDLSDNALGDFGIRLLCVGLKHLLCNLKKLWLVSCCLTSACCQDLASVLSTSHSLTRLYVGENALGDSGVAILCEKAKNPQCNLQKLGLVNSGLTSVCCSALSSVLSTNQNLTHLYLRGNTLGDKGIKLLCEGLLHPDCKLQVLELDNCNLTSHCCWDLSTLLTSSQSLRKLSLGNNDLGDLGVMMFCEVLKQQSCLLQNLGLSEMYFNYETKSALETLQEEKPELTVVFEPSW
# Test: Inhibition of IL-1β release, NLRP3 inflammasome activation assay in HMDM
# Assay type: cell-based
# Run Conditions: commercial compounds (Table 9), read-out: HMDM IC50 vs NLRP3
pIC50: −log10 of the molar value.
Measured Parameter: pIC50

Molecule	System	Reported Measurement
CCC1=C(C)CN(C(=O)NCCc2ccc(S(N)(=O)=O)cc2)C1=O [Glimespiride precursor, reference compound]	NLRP3 inflammasome (Homo sapiens, UniProt Q96P20)	< 3.70

Exercise: What value of pIC50 has been recorded for this entry: CCCCNC(=O)NS(=O)(=O)c1ccc(N)cc1 [Carbutamide, reference compound]
Solution: < 3.70

Exercise: Give its pIC50 value. Item: Cc1ccc(S(=O)(=O)NC(=O)NN2CCCCCC2)cc1 [Tolazamide, reference compound]
Solution: < 3.70

Exercise: Form field: reported pIC50 of Cc1cnc(C(=O)NCCc2ccc(S(N)(=O)=O)cc2)cn1 [Glipizide precursor, reference compound]
Solution: < 4.30

Exercise: Report pIC50 for CCC1=C(C)CN(C(=O)NCCc2ccc(S(=O)(=O)NC(=O)NC3CCC(C)CC3)cc2)C1=O (stereo not drawn) [Glimepiride, reference compound] please.
Solution: 4.04

Exercise: Using the record for Cc1cnc(C(=O)NCCc2ccc(S(=O)(=O)NC(=O)NC3CCCCC3)cc2)cn1 [Glipizide, reference compound] , report its pIC50.
Solution: < 3.70

----------
# System: NLRP3 inflammasome (Mus musculus)
# Sequence (Q8R4B8 whole entry): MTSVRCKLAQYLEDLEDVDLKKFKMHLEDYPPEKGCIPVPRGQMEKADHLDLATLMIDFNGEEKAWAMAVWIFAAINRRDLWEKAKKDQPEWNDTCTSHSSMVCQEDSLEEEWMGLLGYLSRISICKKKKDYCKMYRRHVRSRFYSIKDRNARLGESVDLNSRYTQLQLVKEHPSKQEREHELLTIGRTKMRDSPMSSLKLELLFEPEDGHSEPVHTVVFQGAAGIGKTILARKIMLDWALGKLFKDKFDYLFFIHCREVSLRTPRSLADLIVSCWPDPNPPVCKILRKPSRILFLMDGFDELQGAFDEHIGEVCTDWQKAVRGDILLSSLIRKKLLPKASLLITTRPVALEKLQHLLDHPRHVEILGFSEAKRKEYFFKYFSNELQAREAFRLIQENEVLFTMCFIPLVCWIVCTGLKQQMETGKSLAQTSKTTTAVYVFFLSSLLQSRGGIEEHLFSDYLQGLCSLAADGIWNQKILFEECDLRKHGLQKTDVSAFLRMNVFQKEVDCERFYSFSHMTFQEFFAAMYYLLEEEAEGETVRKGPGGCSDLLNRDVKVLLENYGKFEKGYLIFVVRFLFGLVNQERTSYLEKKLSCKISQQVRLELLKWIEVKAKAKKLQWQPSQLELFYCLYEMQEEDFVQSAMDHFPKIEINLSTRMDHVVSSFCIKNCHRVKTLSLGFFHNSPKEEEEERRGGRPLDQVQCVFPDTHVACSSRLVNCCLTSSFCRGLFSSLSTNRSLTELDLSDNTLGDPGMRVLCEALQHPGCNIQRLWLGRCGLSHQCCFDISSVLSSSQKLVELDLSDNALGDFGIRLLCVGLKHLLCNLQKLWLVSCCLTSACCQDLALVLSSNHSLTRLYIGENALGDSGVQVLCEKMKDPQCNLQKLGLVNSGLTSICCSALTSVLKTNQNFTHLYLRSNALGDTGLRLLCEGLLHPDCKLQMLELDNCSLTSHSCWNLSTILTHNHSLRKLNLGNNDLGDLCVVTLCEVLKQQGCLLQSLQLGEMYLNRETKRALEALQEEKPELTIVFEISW
# Test: Inhibition of IL-1β release, NLRP3 inflammasome activation assay in BMDM
# Format: cell-based
# Run Conditions: inhibition of IL-1β release, class symbols, read-out: Avg. IL-1β IC50 Murine BMDM
Below: a set of entries, each annotated with reported IC50.

Some solved entries appear below for comparison.
Cpd Smiles	IC50
CCC1=C(C)CN(C(=O)NCCc2ccc(S(=O)(=O)NC(=O)Nc3c4c(cc5c3CCC5)CCC4)cc2)C1=O	< 1 µM
COc1ccccc1NC(=O)NS(=O)(=O)c1cc(C(C)(C)O)co1	< 10 µM
CC(C)c1cc(Cl)cc(C(C)C)c1NC(=O)NS(=O)(=O)c1cc2ccccc2o1	< 0.1 µM
Cn1nc(S(=O)(=O)NC(=O)Nc2c3c(cc4c2CCC4)CCC3)cc1C(C)(C)O	< 0.1 µM
Cc1cc(Cl)cc(C)c1NC(=O)NS(=O)(=O)c1cc(C(C)(C)O)co1	< 10 µM

Exercise: Requested field: IC50. Item: Cc1cc(C(=O)NCCc2ccc(S(=O)(=O)NC(=O)Nc3c4c(cc5c3CCC5)CCC4)cc2)no1
Solution: < 1 µM

Exercise: Which IC50 is reported for this molecule? NS(=O)(=O)c1cccc(S(=O)(=O)NC(=O)Nc2c3c(cc4c2CCC4)CCC3)c1
Solution: < 0.1 µM

----------
Consider the following compounds and their measured clearance readings.
# Test: Single dose pharmacokinetic study in mice (iv 4 mg/Kg, po 20 mg/Kg), plasma concentration post-dosing
# Type: in vivo, mouse
# Run Conditions: male, C57BL/6, mouse, plasma, iv, 4 mg/kg, mouse, IV 4 mg/Kg, mean of 3 mice; read-out: Cl, Mean IV
# Method: This is advantageous leading to comparatively lower doses or less frequent administration. The procedure followed was: Male C57BL/6 mice were used at 7-9 weeks age with 3 animals per group. Mice were dosed with test compound using single intravenous bolus or oral gavage. […] LC-MS/MS method for the quantitative determination of test compound in corresponding biological matrix was developed. […]
Respond numerically; units are L/h/kg and should not be typed.

Compound	Measured Parameter	Value Unit	Reported Measurement
CC(C)n1ccc(S(=O)(=O)NC(=O)Nc2c3c(cc4c2CCC4)CCC3)n1	clearance	L/h/kg	0.0373

# context switch: different compound, same clearance
Exercise: Item under review: CC(C)(O)c1coc(S(=O)(=O)NC(=O)Nc2c3c(cc4c2CCC4)CCC3)c1 [MCC_000950_016, reference compound] . Reported clearance?
Solution: 0.115

----------
# Test: Single dose pharmacokinetic study in mice (iv 4 mg/Kg, po 20 mg/Kg), plasma concentration post-dosing
# Assay type: in vivo, mouse
# Run Conditions: male, C57BL/6, plasma; mouse, PO 20 mg/Kg vs IV 4 mg/Kg, Mean PO; read-out: Bioavailability
Measured Parameter: bioavailability

Exercise: # input compound: CC(C)n1ccc(S(=O)(=O)NC(=O)Nc2c3c(cc4c2CCC4)CCC3)n1 ; wanted: its bioavailability
Solution: 67.2%

----------
# Test: Single dose pharmacokinetic study in mice (iv 4 mg/Kg, po 20 mg/Kg), plasma concentration post-dosing
# Format: in vivo, mouse
# Run Conditions: male, C57BL/6, mouse, plasma, po, 20 mg/kg, mouse, PO 20 mg/Kg, individual mice M4-M6; read-out: T1/2 (converted)
Measured Parameter: half-life (h)
Field format: number, assumed h, no unit text.

Exercise: Find the recorded half-life belonging to CC(C)(O)c1coc(S(=O)(=O)NC(=O)Nc2c3c(cc4c2CCC4)CCC3)c1 [MCC_000950_016, reference compound] and report it.
Solution: 2.67

----------
# Test: Single dose pharmacokinetic study in mice (iv 4 mg/Kg, po 20 mg/Kg), plasma concentration post-dosing
# Format: in vivo, mouse
# Run Conditions: male, C57BL/6, mouse, plasma, iv, 4 mg/kg, mouse, IV 4 mg/Kg, mean of 3 mice; read-out: MRT0-inf, Mean IV
Measured Parameter: MRT inf
Phrase the answer as number then unit, nothing more needed.

Compound	MRT inf
CC(C)n1ccc(S(=O)(=O)NC(=O)Nc2c3c(cc4c2CCC4)CCC3)n1	4.29 h

Then there is this compound:
Exercise: Item under review: CC(C)(O)c1coc(S(=O)(=O)NC(=O)Nc2c3c(cc4c2CCC4)CCC3)c1 [MCC_000950_016, reference compound] . Reported MRT inf?
Solution: 2.67 h

----------
Quick list: Vd per entry.
# Test: Single dose pharmacokinetic study in mice (iv 4 mg/Kg, po 20 mg/Kg), plasma concentration post-dosing
# Assay type: in vivo, mouse
# Run Conditions: male, C57BL/6, mouse, plasma, iv, 4 mg/kg, mouse, IV 4 mg/Kg, mean of 3 mice; read-out: Vdss, Mean IV
The reply should be a number in L/kg, with the unit left off.

Compound	Value Unit	Vd
CC(C)(O)c1coc(S(=O)(=O)NC(=O)Nc2c3c(cc4c2CCC4)CCC3)c1 [MCC_000950_016, reference compound]	L/kg	0.306

Exercise: Which Vd is reported for this compound? CC(C)n1ccc(S(=O)(=O)NC(=O)Nc2c3c(cc4c2CCC4)CCC3)n1
Solution: 0.16

----------
# Test: Single dose pharmacokinetic study in mice (iv 4 mg/Kg, po 20 mg/Kg), plasma concentration post-dosing
# Format: in vivo, mouse
# Run Conditions: male, C57BL/6, mouse, plasma, iv, 4 mg/kg, mouse, IV 4 mg/Kg, 1.00 h post dosing, individual mice M1-M3; read-out: Plasma concentration, IV Time 1.00 h
Recorded measurements of concentration at 1 h, one per entry
Report the figure in ng/mL without appending any unit label.

Compound	Value Unit	Reported Measurement
CC(C)n1ccc(S(=O)(=O)NC(=O)Nc2c3c(cc4c2CCC4)CCC3)n1	ng/mL	19900

Continue with the next compound.
Exercise: I have this compound here, CC(C)(O)c1coc(S(=O)(=O)NC(=O)Nc2c3c(cc4c2CCC4)CCC3)c1 [MCC_000950_016, reference compound] , and I need its recorded concentration at 1 h.
Solution: 9340

----------
# Test: Single dose pharmacokinetic study in mice (iv 4 mg/Kg, po 20 mg/Kg), plasma concentration post-dosing
# Format: in vivo, mouse
# Run Conditions: male, C57BL/6, mouse, plasma, iv, 4 mg/kg, mouse, IV 4 mg/Kg, individual mice M1-M3; read-out: Vdss
Below, each of the molecules is paired with its reported Vd value.
Give me the value, and tack the unit on after it.

Molecule	Measured Parameter	Reported Measurement
CC(C)n1ccc(S(=O)(=O)NC(=O)Nc2c3c(cc4c2CCC4)CCC3)n1	Vd	0.17 L/kg

API: the following record is the query input.
Exercise: What measured Vd goes with CC(C)(O)c1coc(S(=O)(=O)NC(=O)Nc2c3c(cc4c2CCC4)CCC3)c1 [MCC_000950_016, reference compound] ?
Solution: 0.265 L/kg

----------
# Test: Single dose pharmacokinetic study in mice (iv 4 mg/Kg, po 20 mg/Kg), plasma concentration post-dosing
# Type: in vivo, mouse
# Run Conditions: male, C57BL/6, mouse, plasma, iv, 4 mg/kg, mouse, IV 4 mg/Kg, 0.500 h post dosing, individual mice M1-M3; read-out: Plasma concentration, IV Time 0.500 h
concentration at 0.5 h reference
Respond numerically; units are ng/mL and should not be typed.

Molecule	Measured Parameter	Value Unit	Reported Measurement
CC(C)(O)c1coc(S(=O)(=O)NC(=O)Nc2c3c(cc4c2CCC4)CCC3)c1 [MCC_000950_016, reference compound]	concentration at 0.5 h	ng/mL	11700

Exercise: concentration at 0.5 h lookup needed for CC(C)n1ccc(S(=O)(=O)NC(=O)Nc2c3c(cc4c2CCC4)CCC3)n1 , thanks.
Solution: 25200

Where do these numbers come from? They come from patent US10538487B2.
